- Tested on: T-47D breast
- procedure-details: NCI tumour cell line growth inhibition, 48 h
outcome-measure: TGI (µM)

>>> df
                                    molecule  scale_unit  result_qualifier  recorded_measurement
 0  CCCc1cc(=O)n2c(C(=O)Nc3cccc(C(=O)OCC)c3)c(C(=O)Nc3ccc(F)cc3)sc2n1          µM                 >                   140
 1  CC1(C)C2CC(O)C1CCC2=O (centres undefined)          µM                 >                   100
 2  COc1ccc2c(c1)CC[C@@H]1[C@@H]2CC[C@]2(C)c3c(cc(C(=O)O)c4sccc34)C[C@@H]12          µM                 =                    49
 3  CC1(C)CC[C@]2(C(=O)O)CC[C@]3(C)C(=CC[C@@H]4[C@@]5(C)C[C@H](O)[C@H](O)[C@@](C)(C(=O)O)[C@@H]5CC[C@]43C)[C@@H]2C1          µM                 >                   100
 4  COC(=O)C1=COC(C)C2CN3CCc4c([nH]c5cc(OC)c(OC)cc45)C3CC12 (centres undefined)          µM                 >                   100
 5  COC(=O)c1ccccc1NC(=NC1CCCCCC1)NS(=O)(=O)c1ccc(C)cc1          µM                 >                   100
 6  N#Cc1ccc(CSC2=C(c3ccc(Cl)cc3)S/C(=C3\SC(SCc4ccc(C#N)cc4)=C(c4ccc(Cl)cc4)S3)S2)cc1          µM                 >                   100
 7       C/C(=N\NC(=S)N(C)C)c1nc2ncccc2[nH]1          µM                 =                  14.7
 8  O=C1C=CC(=O)c2c1ccc1c3ccccc3n(-c3ccccc3)c21          µM                 =                  4.78
 9  S=C(NCCNC(=S)[S][Sn]([c]1ccccc1)([c]1ccccc1)[c]1ccccc1)[S][Sn]([c]1ccccc1)([c]1ccccc1)[c]1ccccc1          µM                 =                 0.091
10  NC(=O)c1ncn(C2OC(CO)C(O)C2O)c1NC=O (centres undefined)          µM                 >                   100
11  N#Cc1c(N)n2c(nc1=Nc1ccc(Cl)cc1)sc1cc(Cl)ccc12          µM                 >                   100
12  Cc1occc1C(=S)Nc1ccc(Cl)c(/C=N/OC(C)(C)C)c1          µM                 =                  42.6
13  CC/C(=C(/c1ccc(O)cc1)c1ccc(OCCN)cc1)c1ccccc1          µM                 =                  5.94
14  Cc1ccc2c(c1)c(Sc1ccc(C(=O)NO)cc1)c1n2CN(C)CC1          µM                 =                  5.45
15  COc1cc2c(c(OC)c1OC)-c1ccc(OC)c(=O)cc1[C@@H](NC(C)=O)CC2          µM                 >                   100
16      COc1ccc(Nc2cc(C)nc(NCc3ccccc3)n2)cc1          µM                 =                  11.3
17  O=C1/C(=C/c2ccco2)N=C2Sc3c(nc[nH]c3=O)N12          µM                 >                   100
18  CCCCCCn1c(-c2ccc(C(=O)O/N=C(\N)c3ccc4ccccc4c3)cc2)nc(-c2ccccc2)c1-c1ccccc1          µM                 >                   100
